Source: ChEMBL document CHEMBL1145460

- Measurement Description: AUC (0-inf) in Sprague-Dawley rat at 5 mg/kg, po up to 8 hrs
- Assay type: ADME, organism-based
- Design: time infinity, dose 5 mg/kg, route oral
- Assay Context: plasma
Observed Property: AUC(0-inf) (ng·h/mL)

- Molecule: "CC(=O)Nc1nc2c(Oc3cc(N4CCN([C@@H](C)c5ccc(F)cc5)CC4)ncn3)cccc2s1"
  Observed Property: "AUC(0-inf)"
  Recorded Result: 2550
- Molecule: "CC(=O)Nc1nc2c(Oc3cc(N4CCN(C(C)c5ccc(C(F)(F)F)cc5)CC4)ncn3)cccc2s1 (centres undefined)"
  Observed Property: "AUC(0-inf)"
  Recorded Result: 120
- Molecule: "CC(=O)Nc1nc2c(Oc3cc(N4CCN([C@H](C)c5ccc(F)cc5)CC4)ncn3)cccc2s1"
  Observed Property: "AUC(0-inf)"
  Recorded Result: 3100
- Molecule: "CC(=O)Nc1nc2c(Oc3cc(N4CCN(C(C)c5ccc(F)cc5)CC4)ncn3)cccc2s1 (centres undefined)"
  Observed Property: "AUC(0-inf)"
  Recorded Result: 1800
